Experiment: Pharmacokinetics following single intravenous and oral gavage dosing (AUC0-24h)
Format: in vivo
Settings: mouse, plasma; single oral dose 15 mg/Kg, male CD-1 mice
Method: Compounds disclosed herein were studied for animal tolerability and pharmacokinetics following single intravenous (iv) and oral gavage (po) dosing to male CD-1 mice. […] Mice activities were monitored and recorded immediately following the dosing. The prepared plasma samples were analyzed using LC/MS/MS on AB Sciex Triple Quad 5500+ system. The PK parameters were determined by non-compartmental analysis using WinNonlin (Version 8.0).
Entries and their measured AUC(0-t) follow.
Dear colleague, please return just the value in ng·h/mL, with no unit written.

>  <compound>
CCc1c(F)ccc2cc(O)cc(-c3ncc4c(N5CCC[C@]6(CCO6)C5)nc(OCC5(CN6CCC(C)(CN7CCN(c8ccc9c(c8)CN([C@H]8CCC(=O)NC8=O)C9=O)CC7)CC6)CC5)nc4c3F)c12

>  <AUC(0-t), ng·h/mL>
977

$$$$

Could you now consider this next compound?
Per the records, this compound ( CCc1c(F)ccc2cc(O)cc(-c3ncc4c(N5CCC[C@]6(CCO6)C5)nc(OCC5(CN6CCC(CN7CCN(c8cc(F)c(C9CCC(=O)NC9=O)c(F)c8)CC7)CC6)CC5)nc4c3F)c12 (some centres unmarked) ) has AUC(0-t) equal to 2140

----------
Biological target: KRAS G12V (Homo sapiens (Human), UniProt P01116, G12V)
Sequence (P01116-2 other isoform, or with tags, fused parts or gaps G12V): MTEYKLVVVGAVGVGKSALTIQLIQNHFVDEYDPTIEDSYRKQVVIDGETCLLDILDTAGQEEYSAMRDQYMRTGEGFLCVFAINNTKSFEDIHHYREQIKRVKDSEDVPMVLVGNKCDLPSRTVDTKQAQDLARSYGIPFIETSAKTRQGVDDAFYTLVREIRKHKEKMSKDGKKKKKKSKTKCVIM
Test: KRAS G12V degradation in SW620 cells (Western blot, DC50)
Format: cell-based
Settings: 24 hours
readoutType: DC50

# example entries with known answers
>  <compound>
CCc1c(F)ccc2cc(O)cc(-c3ncc4c(N5CCC[C@@](C)(O)C5)nc(OCC5(CN6CC(N7CC(N8CCN(c9ccc%10c(c9)CN([C@H]9CCC(=O)NC9=O)C%10=O)CC8)C7)C6)CC5)nc4c3F)c12 [Compound 137]

>  <DC50>
1 to 10 nM

$$$$
>  <compound>
CCc1cccc2cc(O)cc(-c3ncc4c(N5CCC[C@@](C)(O)C5)nc(OCC5(CN6CC7(CCC(N8CCN(c9ccc%10c(c9)CN([C@H]9CCC(=O)NC9=O)C%10=O)CC8)CC7)C6)CC5)nc4c3F)c12 [Compound 142]

>  <DC50>
1 to 10 nM

$$$$
>  <compound>
CCc1c(F)ccc2cc(O)cc(-c3ncc4c(N5CCC[C@@](C)(O)C5)nc(OCC5(CN6CCC7(CC6)CC(C)(CN6CCN(c8ccc9c(c8)CN([C@H]8CCC(=O)NC8=O)C9=O)CC6)C7)CC5)nc4c3F)c12 [Compound 150]

>  <DC50>
< 1 nM

$$$$

// below: DC50 requested for another compound
The compound listed as CCc1c(F)ccc2cc(O)cc(-c3ncc4c(N5CCC[C@@](C)(O)C5)nc(OCC5(CN6CCC(C)(CN7CCN(C8CCN(c9ccc%10c(c9)CN(C9CCC(=O)NC9=O)C%10=O)CC8)CC7)CC6)CC5)nc4c3F)c12 (stereo partly shown) [Compound 39] shows DC50 equal to < 1 nM

----------
Target: KRAS G12V (Homo sapiens (Human), UniProt P01116, G12V)
Assay: KRAS G12V degradation in SW620 cells (Western blot, DC50)
Assay type: cell-based
Details: 24 hours
Experimental: SW620 (KRAS G12V homozygous), AsPC1 (KRAS G12D homozygous), MIA PaCa2 (KRAS G12C homozygous), A549 (KRAS G12S homozygous) and MCF7 (KRAS WT) cells were obtained from American Type Culture Collection (ATCC). […] The signal intensity of target proteins was calculated using ImageStudio software. […] Relative KRAS expression level was determined by the following formula: […] The percentage of KRAS expression was calculated using Microsoft Excel. […]
Listing of entries alongside the reported DC50.

>  <compound>
CCc1cccc2cc(O)cc(-c3ncc4c(N5CCC[C@@](C)(O)C5)nc(OCC5(CN6CC[C@H](CN7CC8(CCN(c9ccc%10c(c9)CN(C9CCC(=O)NC9=O)C%10=O)CC8)C7)C6)CC5)nc4c3F)c12 (some centres unmarked) [Compound 22]

>  <reportedMeasurement>
> 100 nM

$$$$
>  <compound>
CCc1c(F)ccc2cc(O)cc(-c3ncc4c(N5CCC[C@@](C)(O)C5)nc(OCC5(CN6CC(N7CCC(N8CCN(c9ccc%10c(c9)CN([C@H]9CCC(=O)NC9=O)C%10=O)CC8)CC7)C6)CC5)nc4c3F)c12 [Compound 139]

>  <reportedMeasurement>
< 1 nM

$$$$
>  <compound>
CCc1c(F)ccc2cc(O)cc(-c3ncc4c(N5CCC[C@@](C)(O)C5)nc(OCC5(CN6CC7(CCN(C8CN(c9ccc%10c(c9)CN(C9CCC(=O)NC9=O)C%10=O)C8)CC7)C6)CC5)nc4c3F)c12 (some centres unmarked) [Compound 172]

>  <reportedMeasurement>
1 to 10 nM

$$$$
>  <compound>
CCc1c(F)ccc2cc(O)cc(-c3ncc4c(N5CCC[C@]6(CCO6)C5)nc(OCC5(CN6CCC(F)(CN7CCN(c8ccc9c(c8)CN([C@H]8CCC(=O)NC8=O)C9=O)CC7)CC6)CC5)nc4c3F)c12 [Compound 86]

>  <reportedMeasurement>
< 1 nM

$$$$
>  <compound>
C#Cc1c(F)ccc2cc(N)cc(-c3ncc4c(N5CCC[C@@](C)(O)C5)nc(OCC5(CN6CCC7(CC6)CC(CN6CCN(c8ccc9c(c8)CN([C@H]8CCC(=O)NC8=O)C9=O)CC6)C7)CC5)nc4c3F)c12 [Compound 119]

>  <reportedMeasurement>
> 100 nM

$$$$
>  <compound>
CCc1c(F)ccc2cc(O)cc(-c3ncc4c(N5CCC[C@@](C)(O)C5)nc(OCC5(CN6CC7(CCN(C8CCN(c9ccc%10c(c9)CN(C9CCC(=O)NC9=O)C%10=O)CC8)CC7)C6)CC5)nc4c3F)c12 (some centres unmarked) [Compound 166]

>  <reportedMeasurement>
1 to 10 nM

$$$$

C[C@@]1(O)CCCN(c2nc(OCC3(CN4CCC5(CC4)CC(F)(CN4CCN(c6ccc7c(c6)CN([C@H]6CCC(=O)NC6=O)C7=O)CC4)C5)CC3)nc3c(F)c(-c4cc(O)cc5ccc(F)c(F)c45)ncc23)C1 [Compound 174] has a reported DC50 of < 1 nM

According to the records, this compound CCc1cccc2cc(O)cc(-c3ncc4c(N5CCC[C@@](C)(O)C5)nc(OCC5(CN6CCC(N7CC8(CCN(c9ccc%10c(c9)CN([C@H]9CCC(=O)NC9=O)C%10=O)CC8)C7)CC6)CC5)nc4c3F)c12 [Compound 30] displays DC50 of 1 to 10 nM
